Test: yeast display, Sf9 membrane polyspecificity reagent, FACS + sequencing; frameworks hold sequencing errors
Attribute Measured: polyreactivity (PSR sort gate)

Consider the following illustrative entries.
QVQLVESGGGLVQAGGSLRLSCAASGRTFVGYAMGWYRQSPGKERELVAAISTSGGRTYYADSVKGRFTISRDNAKYTVYLQMNSLKPEDTAVYYCAAGFRASIGYVTEYYWGQGTQVTVTS	high polyreactivity
QVQLVESGGGLVQAGGSLRLSWAASGITFVRYAMGWYRQAPGKEREFVAAINSIVGRTYYADSVKGRFTISRDNAKNTVYLQMNSLKPEDTAVYYCDADSNVRYGMDYWGQGTQVTVSS	low polyreactivity
QFQLVESGRGLVQAGGSLRLSCAASGSIFYSYAMGRYRQAPGKEREFVATISDSSGSTYYADSVKGRFTISRDNAKNTVYLQMNSMIPEDTAVYYCATTDSYGYYGYGDWGQGTQVTVSS	low polyreactivity
QVQLVETGGGLDQAGGSLRLSCAASGRIFRKYVMGWYRQAPGKERELVAVISSGASTNYADSVKGRFTISRDNAKNTVYLQMNSLKPEDTAVYYCAKYGKYTWRQGGYWGQGTQVTVSS	high polyreactivity

Exam item: # get_value(readout='polyreactivity (PSR sort gate)', item= `QVQLVESGGGLVQAGGSLRLSCAASGNIFDSNAMGWYRQAPGKERELVAAITWSGGSTYYADSVKGRFTISRDNAKNTVYLQMNSLKPEDTAVYYCNRYIRYYAWFGYWGQGTQVTVSS` )
Marked response: high polyreactivity

====

Test: yeast display, Sf9 membrane polyspecificity reagent, FACS + sequencing; frameworks hold sequencing errors
Attribute Measured: polyreactivity (PSR sort gate)

QVQLVESGGGLVQAGGSLRLSCAASGRTFKGNAMGWYRQAPGKERKLVAVITGSGGSTYYADSVKGRFTISRDNAKNTVYLQMNSLKPEDTAVYYCAAESEPIRIRERDYWGQGTHVTVSS	low polyreactivity
QVQLVESGGGLVQAGGSLRLSCAASGRTFLVNAMGWYRQAPGKERELVAAISQRGGSTDYADSVKGRFTISRDNAKNTVYLQMNSLKPEDTAVYYCAVRWGYLYDYWGQGTQVTVSS	low polyreactivity

====

Assay: yeast display, Sf9 membrane polyspecificity reagent, FACS + sequencing; frameworks hold sequencing errors
Attribute Measured: polyreactivity (PSR sort gate)

Some solved cases for reference:
QVQLVESGGGLVQAGGSLRISSAASGLTFYRYAIGWYRQAPGKERELVAAIRSNVVTTYYADSVKGRFTISRDNAKNTVYLKMNSLKPEDTAVYYCAARFGRSAPPGYDYWGQGTQVTVSS	high polyreactivity
QVQLVESGGGLVQAGGRLRLSCAASGRTFRRYTMGWDRQAPGKERELVAANTSGGRTNYADSVKGRFTISRDNAKNTVYLQMNSLKPEDTAVYYCNAQNEIWRVTFSPYDRWGYDYWGQGTQVTVSA	low polyreactivity
QVQLVESGGGLVQAGGSLRLSCAASGRTFYQYAMGWYRQAPGKERELVAAISKSGRRTYYADSVKGRFTISRDNAKNTVYLQINSLKPEDTAVYYCNAARYLTRWGRFYYWGEGTQVTVSS	high polyreactivity
QVQLVESGGGLVQAGGSLRLSCAASGSIFEYNGMGWYRQAPGKERELVAAITTTGTTDYADSVKGRFTISRDNAKNTVYLQMNSLKPEDTAVYYCAADYTYYYKGEYDYWGQGTQVTVSS	low polyreactivity
QVQLVESGGGLVQAGGSLRLSCAASGRTFVRYAMGWYRQAPGKERELVAAISRTGGTTYYADSVKGRFTISRDNAKNTVYLQMNSLKPEDTAVYYCNADPFYKYGYWGQGTKVTVSS	high polyreactivity
QVQLVESGGGLVQAGGSLRLSCAASGLTFTTYAMGWYRQAPWKERELVAAISRSGGRTYYADSVKGRFTISRDNAKNTVYLHMNSLKPEDTAVYYCNVKGHVLEYYWGQGTQVTVSS	high polyreactivity

Please give polyreactivity (PSR sort gate) for each item listed below.
1. QVQLVESGGGLVQAGGSLRLSCAASGRIFRLYVMGWYRQAPGKERELVAAITRGGGTYYADSVKGRFTISRDNAKNTVYLQMNSLKPEDTAVYYCAVGTYTIYSGTLYDYKYYWGQGTQVTVSS
2. QVQLVESAGGLVQEGGILRLICADSGRIVYRYAMGWYRQAPGKERELVAAISRRGGSTYYEDSVKGRFTISRDNAKYTVIFQMNSLKAVDTAVYYFARYHWYYRVSKSDSWGQGTQVPVSS
3. QVQLVESGGGLVHAGGSLRLSCAASGIIFYLYAMGWYRQAPGKERELVAAISRRGVSTYYADSVKGRFTISRDNAKNTVYLQMNSLKTEDTAVYYCAAAGFGYTGEEYWGQGTQVTVSS
4. QVQLVESGGGLVQAGGSLRLSCAASGSTFSRYAMGWYRPAPGKERELVATITRGGSTNYADSVKGRFTISRDNAQNTVYLQMTSLKPEDTAVYYCNKTARYVDGRGDYWGQGTQVTVSS
5. QVQLVESGGGLVQAGGSLRLSCAASGMTFGLYAMGWYRQAPGKERELVAAISKRGGSTNYADSVKGRFTISRDNAKNTVYLQMNSLKPEDTAGYYCAARYPQRGTGKATYVRSRSGYWGLGTQVTVSS

Marked response:
low polyreactivity
high polyreactivity
high polyreactivity
low polyreactivity
high polyreactivity

All values here come from the nanobody polyreactivity screen of Harvey et al. (2022).
